Value source: patent US9850283B2

// reported IC50 per item
STUDY SYSTEM: Human PD-L1/PD-1 (Homo sapiens)
Construct: made in house; host or cells: HEK293T
Sequence (Q9NZQ7 with tags, fused parts or gaps): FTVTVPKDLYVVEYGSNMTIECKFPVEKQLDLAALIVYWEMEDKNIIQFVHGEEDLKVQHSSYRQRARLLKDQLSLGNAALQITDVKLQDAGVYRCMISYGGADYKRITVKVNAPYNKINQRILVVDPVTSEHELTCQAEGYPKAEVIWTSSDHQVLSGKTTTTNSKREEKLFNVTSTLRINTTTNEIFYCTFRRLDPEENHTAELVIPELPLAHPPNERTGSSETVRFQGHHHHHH
RUN DESCRIPTION: HTRF PD-1-Ig/PD-L1-His binding assay (human PD-L1)
CONDITION SET: cluster symbol; read-out: HTRF IC50 cluster
From the text: The ability of the macrocyclic peptides of the present disclosure to bind to PD-L1 was investigated using a PD-1/PD-L1 Homogenous Time-Resolved Fluorescence (HTRF) binding assay. Homogenous Time-Resolved Fluorescence (HTRF) Assays of Binding of Soluble PD-1 to Soluble PD-L1. […]
Starred links: 1 amine or outer side, 2 acyl side, 3 side chain; linkers in the order of their positions; H or OH if unused. Positions of bridges follow the written chain, without caps; N, C: chain ends. Non-standard residues stand in square brackets, D forms with d. Residues, ends and D or L forms follow the SMILES beside them. X15 = O=C([C@H](Cc1ccc(Cl)c(F)c1)N[*:1])[*:2]; NMeF = CN[C@@H](Cc1ccccc1)C(=O)O; NMeNle = CCCC[C@H](NC)C(=O)O; NMeA = CN[C@@H](C)C(=O)O; Sar = CNCC(=O)O

>  <COMPOUND>
CCCC[C@H]1C(=O)N(C)[C@@H](CCCC)C(=O)N[C@@H](CCCNC(=N)N)C(=O)N[C@H](C(=O)NCC(N)=O)CSCC(=O)N[C@@H](Cc2ccc(O)cc2)C(=O)N(C)[C@@H](C)C(=O)N[C@@H](CC(=O)O)C(=O)N2CCC[C@H]2C(=O)N[C@@H](Cc2cnc[nH]2)C(=O)N[C@@H](CC(C)C)C(=O)N2CCC[C@H]2C(=O)N[C@@H](Cc2c[nH]c3ccccc23)C(=O)N[C@@H](CO)C(=O)N[C@@H](Cc2c[nH]c3ccccc23)C(=O)N1C [Example 1122] ({CH2CO}-Y[NMeA]DPHLPWSW[NMeNle][NMeNle]RCG-NH2; thioether N-14)

>  <STUDY SYSTEM>
Human PD-L1/PD-1 (Homo sapiens)

>  <IC50>
6.76 to 30.3 nM

$$$$

Recorded IC50 for CCCC[C@H]1C(=O)N(C)CC(=O)N[C@@H](CC(=O)O)C(=O)N[C@@H](C(C)C)C(=O)N(C)[C@@H](Cc2ccccc2)C(=O)N[C@@H](Cc2ccc(O)cc2)C(=O)N(C)CC(=O)N[C@@H](Cc2c[nH]c3ccccc23)C(=O)N[C@@H](Cc2ccc(O)cc2)C(=O)N[C@@H](CC(C)C)C(=O)N[C@H](C(=O)NCC(N)=O)CSCC(=O)N[C@@H](Cc2ccc(Cl)c(F)c2)C(=O)N(C)[C@@H](Cc2ccccc2)C(=O)N1C [Example 3180] ({CH2CO}-[X15][NMeF][NMeNle][Sar]DV[NMeF]Y[Sar]WYLCG-NH2; thioether N-13) , please?
6.76 to 30.3 nM
